Values from patent US9850283B2

Listed next: entries and their corresponding pIC50.
target-of-assay: Human PD-L1/PD-1 (Homo sapiens)
Construct: made in house; host or cells: HEK293T
experiment-summary: HTRF PD-1-Ig/PD-L1-His binding assay (human PD-L1)
experimental-setup: cluster symbol; read-out: HTRF IC50 cluster
pIC50: −log10 of the molar value. Positions of bridges follow the written chain, without caps; N, C: chain ends. Non-standard residues stand in square brackets, D forms with d. Residues, ends and D or L forms follow the SMILES beside them. Phe(4-CH2NH2) = NCc1ccc(C[C@H](N)C(=O)O)cc1; NMeF = CN[C@@H](Cc1ccccc1)C(=O)O; NMeNle = CCCC[C@H](NC)C(=O)O; NMeA = CN[C@@H](C)C(=O)O; Sar = CNCC(=O)O

# molecule, pIC50
measured = [
    ("CCCC[C@H]1C(=O)N(C)[C@@H](CCCC)C(=O)N[C@@H](CCCNC(=N)N)C(=O)N[C@H](C(=O)NCC(N)=O)CSCC(=O)N[C@@H](Cc2ccccc2)C(=O)N(C)[C@@H](C)C(=O)N[C@@H](CC(N)=O)C(=O)N2CCC[C@H]2C(=O)N[C@@H](Cc2cnc[nH]2)C(=O)N[C@@H](CC(C)C)C(=O)N(C)CC(=O)N[C@@H](Cc2c[nH]c3ccccc23)C(=O)N[C@H](C)C(=O)N[C@@H](Cc2c[nH]c3ccccc23)C(=O)N1C [Example 1061] ({CH2CO}-F[NMeA]NPHL[Sar]W[dA]W[NMeNle][NMeNle]RCG-NH2; thioether N-14)", "< 7.52"),
]

With those in mind, consider the next molecule.
Asked: Please tell me: pIC50 of CCCC[C@H]1C(=O)N(C)CC(=O)N[C@@H](CC(=O)O)C(=O)N[C@@H](C(C)C)C(=O)N(C)[C@@H](Cc2ccccc2)C(=O)N[C@@H](Cc2ccc(CN)cc2)C(=O)N(C)CC(=O)N[C@@H](Cc2c[nH]c3ccccc23)C(=O)N[C@@H](Cc2ccc(O)cc2)C(=O)N[C@@H](CC(C)C)C(=O)N[C@H](C(=O)NCC(N)=O)CSCC(=O)N[C@@H](Cc2ccccc2)C(=O)N(C)[C@@H](Cc2ccccc2)C(=O)N1C [Example 3524] ({CH2CO}-F[NMeF][NMeNle][Sar]DV[NMeF][Phe(4-CH2NH2)][Sar]WYLCG-NH2; thioether N-13) , system Human PD-L1/PD-1 (Homo sapiens)?
Given back: 7.52 to 8.17

* * *

Below, each entry is listed alongside its reported pIC50.
target-of-assay: Human PD-L1/PD-1 (Homo sapiens, UniProt Q9NZQ7)
Construct: made in house; host or cells: HEK293T
Sequence (Q9NZQ7 with tags, fused parts or gaps): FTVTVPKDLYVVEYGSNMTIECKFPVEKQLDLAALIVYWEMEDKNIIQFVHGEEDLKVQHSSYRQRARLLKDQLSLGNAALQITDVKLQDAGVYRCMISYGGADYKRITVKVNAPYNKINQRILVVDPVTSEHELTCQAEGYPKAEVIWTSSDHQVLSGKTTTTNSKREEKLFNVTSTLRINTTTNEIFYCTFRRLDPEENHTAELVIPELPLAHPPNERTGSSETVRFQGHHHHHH
experiment-summary: HTRF PD-1-Ig/PD-L1-His binding assay (human PD-L1)
experimental-setup: cluster symbol; read-out: HTRF IC50 cluster
pIC50: −log10 of the molar value. Positions of bridges follow the written chain, without caps; N, C: chain ends. Non-standard residues stand in square brackets, D forms with d. Residues, ends and D or L forms follow the SMILES beside them. ξ: configuration not given here. cisHyp = O=C(O)[C@@H]1C[C@H](O)CN1; Hyp = O=C(O)[C@@H]1C[C@@H](O)CN1; NMeNle = CCCC[C@H](NC)C(=O)O; NMeS = CN[C@@H](CO)C(=O)O; NMeA = CN[C@@H](C)C(=O)O; Dap = NC[C@H](N)C(=O)O; ξC = NC(CS)C(=O)O; Sar = CNCC(=O)O

Here's what some known entries look like.
# molecule, result
data = [
    ("CCCC[C@H]1C(=O)N(C)[C@@H](CCCC)C(=O)N[C@@H](CCCNC(=N)N)C(=O)N[C@H](C(=O)NCC(N)=O)CSCC(=O)N[C@@H](Cc2ccccc2)C(=O)N(C)[C@@H](C)C(=O)N[C@@H](CC(N)=O)C(=O)N2CCC[C@H]2C(=O)N[C@@H](Cc2cnc[nH]2)C(=O)N[C@@H](CC(C)C)C(=O)N(C)CC(=O)N[C@@H](Cc2c[nH]c3ccccc23)C(=O)N[C@@H](CN)C(=O)N[C@@H](Cc2c[nH]c3ccccc23)C(=O)N1C [Example 5002] ({CH2CO}-F[NMeA]NPHL[Sar]W[Dap]W[NMeNle][NMeNle]RCG-NH2; thioether N-14)", "< 7.52"),
    ("CCCC[C@H]1C(=O)N(C)[C@@H](CCCC)C(=O)N[C@@H](CN)C(=O)N[C@H](C(=O)NCC(N)=O)CSCC(=O)N[C@@H](Cc2ccc(O)cc2)C(=O)N(C)[C@@H](C)C(=O)N[C@@H](CC(N)=O)C(=O)N2CCC[C@H]2C(=O)N[C@@H](CN)C(=O)N[C@@H](CC(C)C)C(=O)N2C[C@H](O)C[C@H]2C(=O)N[C@@H](Cc2c[nH]c3ccccc23)C(=O)N[C@@H](CO)C(=O)N[C@@H](Cc2c[nH]c3ccccc23)C(=O)N1C [Example 5063] ({CH2CO}-Y[NMeA]NP[Dap]L[Hyp]WSW[NMeNle][NMeNle][Dap]CG-NH2; thioether N-14)", "8.17 to 9.41"),
    ("CCCC[C@H]1C(=O)N(C)[C@@H](CO)C(=O)N[C@@H](CCCNC(=N)N)C(=O)NC(C(=O)NCC(N)=O)CSCC(=O)N[C@@H](Cc2ccc(O)cc2)C(=O)N(C)[C@@H](C)C(=O)N[C@@H](CC(N)=O)C(=O)N2CCC[C@H]2C(=O)N[C@@H](Cc2cnc[nH]2)C(=O)N[C@@H](CC(C)C)C(=O)N2CCC[C@H]2C(=O)N[C@@H](Cc2c[nH]c3ccccc23)C(=O)N[C@@H](CO)C(=O)N[C@@H](Cc2c[nH]c3ccccc23)C(=O)N1C (stereo partly shown) [Example 9032] ({CH2CO}-Y[NMeA]NPHLPWSW[NMeNle][NMeS]R[ξC]G-NH2; thioether N-14)", "7.52 to 8.17"),
]

Lab note: next molecule to report on.
Asked: Report pIC50 for CCCC[C@H]1C(=O)N(C)[C@@H](CCCC)C(=O)N[C@@H](CCCNC(=N)N)C(=O)N[C@H](C(=O)NCC(N)=O)CSCC(=O)N[C@@H](Cc2ccc(O)cc2)C(=O)N2CCC[C@H]2C(=O)N[C@@H](CC(N)=O)C(=O)N2CCC[C@H]2C(=O)N[C@@H](Cc2cnc[nH]2)C(=O)N[C@@H](CC(C)C)C(=O)N2C[C@@H](O)C[C@H]2C(=O)N[C@@H](Cc2c[nH]c3ccccc23)C(=O)N[C@@H](CO)C(=O)N[C@@H](Cc2c[nH]c3ccccc23)C(=O)N1C [Example 1148] ({CH2CO}-YPNPHL[cisHyp]WSW[NMeNle][NMeNle]RCG-NH2; thioether N-14) tested on Human PD-L1/PD-1 (Homo sapiens, UniProt Q9NZQ7).
Given back: 7.52 to 8.17

* * *

target-of-assay: LK35.2-hPD-L1 cells / PE-labeled PD-1-Ig (Homo sapiens, UniProt Q9NZQ7)
Construct: expressed in transfected cells; host or cells: LK35.2 mouse B cell line
Sequence (Q9NZQ7 19-290): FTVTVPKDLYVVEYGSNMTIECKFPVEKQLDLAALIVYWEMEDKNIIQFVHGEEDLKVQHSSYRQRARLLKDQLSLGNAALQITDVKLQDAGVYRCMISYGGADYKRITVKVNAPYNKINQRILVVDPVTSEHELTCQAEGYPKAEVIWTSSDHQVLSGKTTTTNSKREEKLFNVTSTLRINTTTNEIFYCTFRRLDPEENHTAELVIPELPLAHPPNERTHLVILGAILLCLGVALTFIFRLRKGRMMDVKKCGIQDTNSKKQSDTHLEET
experiment-summary: LK35.2-hPD-L1 cell binding high-content screening assay
Assay type: cell-based
experimental-setup: cell binding assay, cell line not given; cluster symbol; read-out: CBA IC50 cluster
pIC50: −log10 of the molar value. Positions of bridges follow the written chain, without caps; N, C: chain ends. Non-standard residues stand in square brackets, D forms with d. Residues, ends and D or L forms follow the SMILES beside them. ξ: configuration not given here. *: point of attachment. Bta = N[C@@H](Cc1csc2ccccc12)C(=O)O; Hyp = O=C(O)[C@@H]1C[C@@H](O)CN1; NMeNle = CCCC[C@H](NC)C(=O)O; NMeM = CN[C@@H](CCSC)C(=O)O; NMeS = CN[C@@H](CO)C(=O)O; NMeA = CN[C@@H](C)C(=O)O; Dab = NCC[C@H](N)C(=O)O; Dap = NC[C@H](N)C(=O)O; Bn = c1ccc(C*)cc1; ξC = NC(CS)C(=O)O; Sar = CNCC(=O)O
The entries below are paired with their reported pIC50.

The cases that follow already have their pIC50 on record.
# compound, property-label, result
rows = [
    ("CCCC[C@H]1C(=O)N(C)[C@@H](COCC)C(=O)N[C@@H](CCCNC(=N)N)C(=O)NC(C(=O)NCC(N)=O)CSCC(=O)N[C@@H](Cc2ccc(O)cc2)C(=O)N(C)[C@@H](C)C(=O)N[C@@H](CC(N)=O)C(=O)N2CCC[C@H]2C(=O)N[C@@H](Cc2cnc[nH]2)C(=O)N[C@@H](CC(C)C)C(=O)N2CCC[C@H]2C(=O)N[C@@H](Cc2c[nH]c3ccccc23)C(=O)N[C@@H](CO)C(=O)N[C@@H](Cc2c[nH]c3ccccc23)C(=O)N1C (some centres unmarked) [Example 9041] ({CH2CO}-Y[NMeA]NPHLPWSW[NMeNle][NMeS](Et)R[ξC]G-NH2; thioether N-14)", "pIC50", "8.33 to 9.80"),
    ("CC(C)C[C@@H]1NC(=O)[C@H](Cc2cnc[nH]2)NC(=O)[C@@H]2CCCN2C(=O)[C@H](CC(N)=O)NC(=O)[C@H](C)N(C)C(=O)[C@H](Cc2ccccc2)NC(=O)CSC[C@@H](C(=O)NCC(N)=O)NC(=O)[C@H](CCCNC(=N)N)NC(=O)[C@H](COCc2ccccc2)N(C)C(=O)[C@H](C)N(C)C(=O)[C@H](Cc2c[nH]c3ccccc23)NC(=O)[C@H](CO)NC(=O)[C@H](Cc2c[nH]c3ccccc23)NC(=O)CN(C)C1=O [Example 6015] ({CH2CO}-F[NMeA]NPHL[Sar]WSW[NMeA][NMeS](Bn)RCG-NH2; thioether N-14)", "pIC50", "7.14 to 8.32"),
    ("CCCC[C@H]1C(=O)N[C@@H](C)C(=O)NC(C(=O)NCC(N)=O)CSCC(=O)N[C@@H](Cc2ccc(O)cc2)C(=O)N(C)[C@@H](C)C(=O)N[C@@H](CC(N)=O)C(=O)N2CCC[C@H]2C(=O)N[C@@H](CN)C(=O)N[C@@H](CC(C)C)C(=O)N2CCC[C@H]2C(=O)N[C@@H](Cc2c[nH]c3ccccc23)C(=O)N[C@@H](CO)C(=O)N[C@@H](Cc2csc3ccccc23)C(=O)N(C)[C@@H](CCSC)C(=O)N1C (some centres unmarked) [Example 9094] ({CH2CO}-Y[NMeA]NP[Dap]LPWS[Bta][NMeM][NMeNle]A[ξC]G-NH2; thioether N-14)", "pIC50", "7.14 to 8.32"),
]

Asked: Look up pIC50 for this compound: CCCC[C@H]1C(=O)N(C)[C@@H](CCCC)C(=O)N[C@@H](CN)C(=O)N[C@H](C(=O)NCC(N)=O)CSCC(=O)N[C@@H](Cc2ccccc2)C(=O)N(C)[C@@H](C)C(=O)N[C@@H](CC(N)=O)C(=O)N2CCC[C@H]2C(=O)N[C@@H](Cc2cnc[nH]2)C(=O)N[C@@H](CC(C)C)C(=O)N(C)CC(=O)N[C@@H](Cc2c[nH]c3ccccc23)C(=O)N[C@@H](CO)C(=O)N[C@@H](Cc2c[nH]c3ccccc23)C(=O)N1C [Example 5007] ({CH2CO}-F[NMeA]NPHL[Sar]WSW[NMeNle][NMeNle][Dap]CG-NH2; thioether N-14)
Given back: 7.14 to 8.32

Asked: Give its pIC50 value. Item: CCCC[C@H]1C(=O)N(C)[C@@H](CCCC)C(=O)N[C@@H](CC(C)C)C(=O)N[C@H](C(=O)NCC(N)=O)CSCC(=O)N[C@@H](Cc2ccc(O)cc2)C(=O)N(C)[C@@H](C)C(=O)N[C@@H](CC(N)=O)C(=O)N2CCC[C@H]2C(=O)N[C@@H](CO)C(=O)N[C@@H](CCC(=O)O)C(=O)N2C[C@H](O)C[C@H]2C(=O)N[C@@H](Cc2c[nH]c3ccccc23)C(=O)N[C@@H](CCN)C(=O)N[C@@H](Cc2c[nH]c3ccccc23)C(=O)N1C [Example 5074] ({CH2CO}-Y[NMeA]NPSE[Hyp]W[Dab]W[NMeNle][NMeNle]LCG-NH2; thioether N-14)
Given back: 8.33 to 9.80

Asked: // returns reported pIC50 for input CCCC[C@H]1C(=O)N(C)CC(=O)N[C@@H](CC(=O)O)C(=O)N[C@@H](C(C)C)C(=O)N(C)[C@@H](Cc2ccccc2)C(=O)N[C@@H](Cc2ccc(O)cc2)C(=O)N(C)CC(=O)N[C@@H](Cc2c[nH]c3ccccc23)C(=O)N[C@@H](Cc2ccc(O)cc2)C(=O)N[C@@H](CC(C)C)C(=O)N[C@H](C(=O)NCC(N)=O)CSCC(=O)N[C@@H](Cc2ccccc2)C(=O)N(C)[C@@H](Cc2cccc3ccccc23)C(=O)N1C (single isomer, unassigned) [Example 3585-A]
Given back: < 7.13

Asked: // query pIC50 value for entry CCCC[C@H]1C(=O)N(C)[C@@H](CCCC)C(=O)N[C@@H](CCCNC(=N)N)C(=O)N[C@H](C(=O)NCC(N)=O)CSCC(=O)N[C@@H](Cc2ccc(O)cc2)C(=O)N(C)[C@@H](C)C(=O)N[C@@H](CC(N)=O)C(=O)N2CCC[C@H]2C(=O)N[C@@H](Cc2cnc[nH]2)C(=O)N[C@@H](CC(C)C)C(=O)N2C[C@H](C#N)C[C@H]2C(=O)N[C@@H](Cc2c[nH]c3ccccc23)C(=O)N[C@@H](CO)C(=O)N[C@@H](Cc2c[nH]c3ccccc23)C(=O)N1C [Example 6022]
Given back: 8.33 to 9.80

Asked: Give the measured pIC50 of CCCC[C@H]1C(=O)N(C)[C@@H](CCCC)C(=O)N[C@@H](CCCNC(=N)N)C(=O)NC(C(=O)N[C@@H](CO)C(N)=O)CSCC(=O)N[C@@H](Cc2ccc(O)cc2)C(=O)N(C)[C@@H](C)C(=O)N[C@@H](CC(N)=O)C(=O)N2CCC[C@H]2C(=O)N[C@@H](Cc2cnc[nH]2)C(=O)N[C@@H](CO)C(=O)N2CCC[C@H]2C(=O)N[C@@H](Cc2c[nH]c3ccccc23)C(=O)N[C@@H](CO)C(=O)N[C@@H](Cc2csc3ccccc23)C(=O)N1C (some centres unmarked) [Example 9076] ({CH2CO}-Y[NMeA]NPHSPWS[Bta][NMeNle][NMeNle]R[ξC]S-NH2; thioether N-14) .
Given back: 7.14 to 8.32
